The following compounds are shown together with reported IC50 values.
- tgt: UniProt:Q99705
- test_description: High throughput functional screening FLIPR/FDSS6000: inhibition of MCH-evoked intracellular Ca2+ changes
- Type: cell-based
- run_conditions: class by percent of control at 10^-7 M or by IC50; read-out: class

Use these answered entries as a reference point.
[
  {
    "compound": "CC(C)c1cccc(C(C)C)c1NC(=O)N[C@H]1CC[C@@H](Nc2nc(N(C)C)c3ccccc3n2)CC1 [compound 68]",
    "IC50": "> 200 nM"
  },
  {
    "compound": "CN(C)c1nc(N[C@H]2CC[C@@H](NC(=O)Nc3ccccc3F)CC2)nc2ccccc12 [compound 38]",
    "IC50": "> 200 nM"
  },
  {
    "compound": "Cc1onc(-c2ccccc2)c1NC(=S)NC[C@H]1CC[C@@H](Nc2nc(N(C)C)c3ccccc3n2)CC1 [compound 819]",
    "IC50": "50 to 200 nM"
  },
  {
    "compound": "Cc1cccc(NC(=O)N[C@H]2CC[C@@H](Nc3nc(N(C)C)c4ccccc4n3)CC2)c1 [compound 59]",
    "IC50": "50 to 200 nM"
  },
  {
    "compound": "CN(C)c1nc(N[C@H]2CC[C@@H](NC(=O)Nc3cccc(C(F)(F)F)c3)CC2)nc2ccccc12 [compound 56]",
    "IC50": "> 200 nM"
  }
]

### Prompt Specify IC50 for CN(C)c1nc(N[C@H]2CC[C@@H](NC(=O)OCC3c4ccccc4-c4ccccc43)CC2)nc2ccccc12 [compound 864] and stop.
### Response > 200 nM

### Prompt Specify IC50 for CCOC(=O)c1cccc(NC(=O)N[C@H]2CC[C@@H](Nc3nc(N(C)C)c4ccccc4n3)CC2)c1 [compound 29] and stop.
### Response < 50 nM

###

- tgt: MCH receptor (Homo sapiens, UniProt Q99705)
- test_description: High throughput functional screening FLIPR/FDSS6000: inhibition of MCH-evoked intracellular Ca2+ changes
- Assay type: cell-based
- run_conditions: class by percent of control at 10^−7 M or by IC50; read-out: class
The following molecules are shown together with reported IC50 values.

[
  {
    "molecule": "Cc1ccccc1CNC(=O)[C@H]1CC[C@@H](Nc2nc(N(C)C)c3ccccc3n2)CC1",
    "tgt": "MCH receptor (Homo sapiens, UniProt Q99705)",
    "IC50": "< 50 nM"
  }
]

### Prompt Specify IC50 for COc1cccc(C(O)C(=O)N[C@H]2CC[C@@H](Nc3nc(N(C)C)c4ccccc4n3)CC2)c1 (relative stereo) and stop.
### Response < 50 nM

### Prompt Specify IC50 for "CN(C)c1nc(N[C@H]2CC[C@@H](NC(=O)c3cccc(C(F)(F)F)c3)CC2)nc2cc(F)c(F)cc12" and stop.
### Response < 50 nM

### Prompt Specify IC50 for "CN(C)c1nc(N[C@H]2CC[C@@H](CNC(=O)Nc3ccc(Cl)c(Cl)c3)CC2)nc2ccccc12" and stop.
### Response 50 to 200 nM

### Prompt Specify IC50 for "CN(C)c1nc(N[C@H]2CC[C@@H](NC(=O)c3ccc(Oc4ccccc4Cl)nc3)CC2)nc2ccccc12" and stop.
### Response > 200 nM

### Prompt Specify IC50 for "CN(C)c1nc(N[C@H]2CC[C@@H](C(=O)NCc3ccc(F)cc3F)CC2)nc2cc(F)c(F)cc12" and stop.
### Response > 200 nM

### Prompt Specify IC50 for "COc1ccc(CNC(=O)[C@H]2CC[C@@H](Nc3nc(N(C)C)c4cc(F)c(F)cc4n3)CC2)cc1" and stop.
### Response < 50 nM

### Prompt Specify IC50 for "CN(C)c1nc(N[C@H]2CC[C@@H](NC(=O)COc3ccc(Cl)cc3Cl)CC2)nc2ccccc12" and stop.
### Response 50 to 200 nM

### Prompt Specify IC50 for "CN(C)c1nc(N[C@H]2CC[C@@H](NC(=O)Nc3cccc(OC(F)(F)F)c3)CC2)nc2ccccc12" and stop.
### Response < 50 nM

### Prompt Specify IC50 for "CC(=O)Nc1cccc(C(=O)N[C@H]2CC[C@@H](Nc3nc(N(C)C)c4ccccc4n3)CC2)c1" and stop.
### Response < 50 nM

### Prompt Specify IC50 for "CN(C)c1nc(N[C@H]2CC[C@@H](C(=O)NCc3c(F)ccc(Cl)c3F)CC2)nc2ccccc12" and stop.
### Response < 50 nM
